Where do the numbers come from? From ChEMBL document CHEMBL1122894.

- test.method.notes: Compound was evaluated for in vitro inhibition of Testosterone 5 alpha-Reductase using substrate concentration 3 x 10e-7 M
- Parameters: species or system Rattus norvegicus
Listed here: items and their measured Ki.
State just the number; it will be interpreted in nM.

Look over these answered cases.
compound="CC(CO)C1CCC2C3CC[C@H]4N(C)C(=O)CCC4(C)C3CCC12C (some centres undefined)" readout_type=Ki meas_value=3.8
compound="CC(CO)C1CCC2C3CC[C@H]4N(C)C(=O)OCC4(C)C3CCC12C (some centres undefined)" readout_type=Ki meas_value=120

Ask | For the compound CC(CO)C1CCC2C3CC[C@H]4N(C)C(=S)OCC4(C)C3CCC12C (some centres undefined) , report Ki.
Reply | 400

Ask | For the compound CCN(CC)C(=O)[C@H]1CC[C@H]2[C@@H]3CC[C@H]4N(C)C(=O)CC[C@]4(C)[C@H]3CC[C@]12C , report Ki.
Reply | 7.3
